// reported self-aminoacylation for each item listed
- Tested on: biotinyl-Phe-oxazolone
- measurement_protocol: self-aminoacylation, catalytic enhancement (BFO) (fold over background); higher = more active; k-Seq, kA / k0A0; sequences stand for … in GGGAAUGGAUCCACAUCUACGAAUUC…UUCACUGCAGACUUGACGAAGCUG
Variants at the floor of the assay were thinned out.

query_sequence="CCACACUUCAAGCAAUCUGUC [Fam1B.1 aminoacylation ribozyme variant]" measurement_kind=self-aminoacylation assay_result=0.824

-- ask Find the measured self-aminoacylation of AUUACCCUGGUCAUCGGGAGA [Fam2.1 aminoacylation ribozyme variant] and report it.
-- reply 2.87

-- ask Identify measured self-aminoacylation associated with CCACACUUAAAGCCAUCGGUC [Fam1B.1 aminoacylation ribozyme variant]
-- reply 0.617

-- ask For the sequence AUUUACCUAGGUCAUUGGGUG [Fam2.2 aminoacylation ribozyme variant] , give its reported self-aminoacylation.
-- reply 19.7

-- ask Consider the sequence AUGACCCUGGUCAUCGAGUGU [Fam2.1 aminoacylation ribozyme variant] and give its recorded self-aminoacylation.
-- reply 692

-- ask Consider the sequence CUACUUCAAACAAACAGUCUG [Fam1A.1 aminoacylation ribozyme variant] . State its measured self-aminoacylation.
-- reply 0.8

-- ask Look up and report measured self-aminoacylation for this entry: AUGACCGUGGUCAUCGAGUGA [Fam2.1 aminoacylation ribozyme variant]
-- reply 39.7

-- ask Provide self-aminoacylation value for the following sequence: UUUACCCAGGUCAUCGAGUGA [Fam2.1 aminoacylation ribozyme variant]
-- reply 21.9

-- ask Consider the sequence CCACACUUCAUGCGAUCGGUC [Fam1B.1 aminoacylation ribozyme variant] and give its recorded self-aminoacylation.
-- reply 0.762

-- ask Give the value of self-aminoacylation reported for the following: AUUCACCUAGGUUAUCGGCUG [Fam2.2 aminoacylation ribozyme variant]
-- reply 4.24

-- ask Check the records and state self-aminoacylation for CUACUUCAAACGAGCGGUCUG [Fam1A.1 aminoacylation ribozyme variant]
-- reply 0.761

-- ask Read off the recorded self-aminoacylation for AUUACCCUUGGCAUCGAGUGA [Fam2.1 aminoacylation ribozyme variant]
-- reply 31.7

-- ask Let me know recorded self-aminoacylation for AUUCACCUGGGCCAUCGGGUG [Fam2.2 aminoacylation ribozyme variant] , thanks.
-- reply 35.7

-- ask Name the recorded self-aminoacylation of the item CCACACUUCAACCCAUCGGUC [Fam1B.1 aminoacylation ribozyme variant] in your answer.
-- reply 0.791

-- ask Consider the sequence CCACACUUCAAGGAAUCGGUC [Fam1B.1 aminoacylation ribozyme variant] . State its measured self-aminoacylation.
-- reply 8.21

-- ask Check the records and state self-aminoacylation for ACUCACCUAGGUCGUCGGGUG [Fam2.2 aminoacylation ribozyme variant]
-- reply 6.16

-- ask Query self-aminoacylation for AUGCAACUAGGUCAUCGGGUG [Fam2.2 aminoacylation ribozyme variant]
-- reply 56.2

-- ask Answer with the recorded self-aminoacylation of AUUACCCGGGUCCUCGAGUGA [Fam2.1 aminoacylation ribozyme variant] only.
-- reply 47.4

* * *

- Test system: biotinyl-Val-oxazolone
- measurement_protocol: self-aminoacylation, catalytic enhancement (BVO) (fold over background); higher = more active; k-Seq, kA / k0A0; sequences stand for … in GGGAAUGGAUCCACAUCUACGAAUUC…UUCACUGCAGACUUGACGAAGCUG
Fewer inactive variants are shown than the library holds.
measurement_kind: self-aminoacylation
Give your answer as a number; write no unit.

Examples with answers:
query_sequence="AUUACCCUGGGCAUUGAGUGA [Fam2.1 aminoacylation ribozyme variant]" assay_result=4.23
query_sequence="AAAUUUGCUAAUAGUCGCAAC [Fam3.1 aminoacylation ribozyme variant]" assay_result=1.51
query_sequence="AUUCAUUUAGGUCAUCGGGUG [Fam2.2 aminoacylation ribozyme variant]" assay_result=3.33

-- ask Consider the sequence CUACUUCAAACAUUCGGUGUG [Fam1A.1 aminoacylation ribozyme variant] tested on biotinyl-Val-oxazolone; state its self-aminoacylation.
-- reply 1.51

-- ask Specify self-aminoacylation for CCACACUUCCAGCAAUCGAUC [Fam1B.1 aminoacylation ribozyme variant] , system biotinyl-Val-oxazolone.
-- reply 0.959
